- System: A549-ACE2 infected with SARS-CoV-2
- EXPERIMENT: SARS-CoV-2 infection rate relative to DMSO; higher = more infection
- RECORDED_CONDITIONS: 3 µM; 24 h
Output rule met for SARS-CoV-2 infection rate not less than 60%; output rule not met otherwise.

Inquiry: Does the molecule C=C1C(=O)O[C@@H]2[C@H]3O[C@]3(C)CC/C=C(\C)CC[C@@H]12 [parthenolide-(alternate-stereo)] have recorded SARS-CoV-2 infection rate that is 60% or more?
Reply text: rule met

Inquiry: Does the molecule COc1ccc2cc(-c3nc(-c4ccc([S+](C)[O-])cc4)[nH]c3-c3ccncc3)ccc2c1 (stereo not drawn) have recorded SARS-CoV-2 infection rate that is 60% or more?
Reply text: rule met

Inquiry: Does the molecule CC(=O)N(O)[C@@H]1c2cc(C#N)ccc2OC(C)(C)[C@H]1O have recorded SARS-CoV-2 infection rate that is 60% or more?
Reply text: rule met

Others:
Inquiry: Does the molecule CC(C)C[C@H](NC(=O)CNC(=O)c1cc(Cl)ccc1Cl)B1OC(=O)C(CC(=O)O)(CC(=O)O)O1 have recorded SARS-CoV-2 infection rate that is 60% or more?
Reply text: rule not met

Inquiry: Does the molecule Cc1[nH]c(/C=C2\C(=O)Nc3ccc(S(=O)(=O)Cc4c(Cl)cccc4Cl)cc32)c(C)c1C(=O)N1CCC[C@@H]1CN1CCCC1 have recorded SARS-CoV-2 infection rate that is 60% or more?
Reply text: rule not met

Inquiry: Does the molecule CCCCCCCCc1ccc(CCC(N)(CO)CO)cc1 have recorded SARS-CoV-2 infection rate that is 60% or more?
Reply text: rule met

Inquiry: Does the molecule C=C1C(=O)O[C@@H]2/C=C(\C)CC/C=C(\C)CC[C@@H]12 [costunolide] have recorded SARS-CoV-2 infection rate that is 60% or more?
Reply text: rule met

Inquiry: Does the molecule COc1ccccc1C1(O)CCN(CCCn2c3ccccc3c3ccccc32)CC1 have recorded SARS-CoV-2 infection rate that is 60% or more?
Reply text: rule not met
